Data provenance: patent US20050215551A1

# measurementTarget: NAreuptake (Homo sapiens, UniProt P23975)
# Sequence (P23975 whole entry): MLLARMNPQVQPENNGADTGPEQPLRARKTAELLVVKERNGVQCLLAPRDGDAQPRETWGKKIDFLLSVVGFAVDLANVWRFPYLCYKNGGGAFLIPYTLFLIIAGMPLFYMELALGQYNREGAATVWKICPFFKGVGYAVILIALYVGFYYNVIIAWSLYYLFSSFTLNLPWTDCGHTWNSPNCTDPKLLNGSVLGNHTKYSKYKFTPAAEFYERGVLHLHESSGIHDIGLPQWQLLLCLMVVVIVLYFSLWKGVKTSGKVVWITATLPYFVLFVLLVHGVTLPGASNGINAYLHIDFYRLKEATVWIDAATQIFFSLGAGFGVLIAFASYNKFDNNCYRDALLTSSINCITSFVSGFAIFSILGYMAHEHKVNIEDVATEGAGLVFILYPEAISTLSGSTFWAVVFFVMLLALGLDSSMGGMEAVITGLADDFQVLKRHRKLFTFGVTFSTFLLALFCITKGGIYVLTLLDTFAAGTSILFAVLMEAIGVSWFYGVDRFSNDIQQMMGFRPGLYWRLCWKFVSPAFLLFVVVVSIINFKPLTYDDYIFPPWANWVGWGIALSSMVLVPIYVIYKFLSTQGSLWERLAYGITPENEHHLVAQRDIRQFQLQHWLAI
# protocolNotes: Binding NA reuptake
# conditions: radioligand [3H]-nisoxetin, read-out: Ki(nM) Compound 1
parameterMeasured: Ki

Ask: Need Ki of Nc1cc2cccc(N3CCNCC3)c2oc1=O , thanks.
Result: > 1000 nM

====

# measurementTarget: Neurotensin-NT1 (Homo sapiens, UniProt P30989)
# Sequence (P30989 whole entry): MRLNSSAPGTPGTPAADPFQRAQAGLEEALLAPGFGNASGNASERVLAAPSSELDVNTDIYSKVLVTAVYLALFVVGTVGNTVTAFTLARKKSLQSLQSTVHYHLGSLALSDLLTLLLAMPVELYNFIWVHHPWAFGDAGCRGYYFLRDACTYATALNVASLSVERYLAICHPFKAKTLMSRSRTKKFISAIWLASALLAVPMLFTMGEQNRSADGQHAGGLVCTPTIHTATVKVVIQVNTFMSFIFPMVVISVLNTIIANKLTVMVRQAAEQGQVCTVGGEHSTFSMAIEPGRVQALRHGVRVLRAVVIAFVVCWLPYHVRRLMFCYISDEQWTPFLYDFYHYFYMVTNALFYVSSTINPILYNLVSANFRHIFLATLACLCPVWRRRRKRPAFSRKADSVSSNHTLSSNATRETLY
# protocolNotes: Receptor binding Neurotensin-NT1
# conditions: radioligand [125I]-neurotensin, read-out: Ki(nM) Compound 1
# Description: Receptor binding data were obtained by CEREP (128, rue Danton, 92500 Rueil-Malmaison, France) or at Solvay Pharmaceuticals B.V., using well documented standard procedures. Affinity for 5-HT1A receptors for instance, was determined by testing the ability of the compounds of the invention to displace [^3H]-2-(di-n-propylamino)-8-hydroxytetralin ([^3H]-8-OH-DPAT) from its specific binding sites in rat frontal cortex homogenates. […]
parameterMeasured: Ki

Ask: Param readout = Ki; param system = Neurotensin-NT1 (Homo sapiens, UniProt P30989); param query = Nc1cc2cccc(N3CCNCC3)c2oc1=O ; response: value
Result: > 1000 nM
